# Tested on: DNA
# assay-remarks: Binding affinity to calf thymus DNA assessed as hypochromic effect by UV-vis spectra analysis
# Assay type: nucleic-acid assay
# Parameters: concentration or dose not given beside the values
# particulars: Bos taurus
endpoint: Activity (%)
Response body: numeric value in %, unit text excluded.

I am curious: what Activity value has been reported for COC(=O)c1cc2oc(-c3nc4cc(C(=N)NC(C)C)ccc4[nH]3)cc2c2ccccc12 ?
51

I am curious: what Activity value has been reported for CCOC(=O)/C(=C/c1ccc(-c2nc3cc(C(=N)NC(C)C)ccc3[nH]2)o1)c1ccc(C#N)cc1 ?
10

I am curious: what Activity value has been reported for COC(=O)/C(=C/c1ccc(-c2nc3cc(C(=N)NC(C)C)ccc3[nH]2)o1)c1ccccc1 ?
8

I am curious: what Activity value has been reported for CCOC(=O)c1cc2oc(-c3nc4cc(C(=N)NC(C)C)ccc4[nH]3)cc2c2cc(C#N)ccc12 ?
10

I am curious: what Activity value has been reported for COC(=O)/C(=C/c1ccc(-c2nc3cc(C(=N)NC(C)C)ccc3[nH]2)s1)c1ccccc1 ?
18

I am curious: what Activity value has been reported for COC(=O)c1cc2sc(-c3nc4cc(C(=N)NC(C)C)ccc4[nH]3)cc2c2ccccc12 ?
15

----------
# Tested on: DNA
# assay-remarks: Binding affinity to calf thymus DNA in sodium cacodylate buffer assessed as melting temperature at compound/DNA ratio 0.3 at pH 7
# Format: nucleic-acid assay
# particulars: Bos taurus
For each of the molecules below, state its ΔTm.
Response body: numeric value in °C, unit text excluded.

I am curious: what ΔTm value has been reported for CCOC(=O)c1cc2oc(-c3nc4cc(C(=N)NC(C)C)ccc4[nH]3)cc2c2cc(C#N)ccc12 ?
1.6

I am curious: what ΔTm value has been reported for COC(=O)/C(=C/c1ccc(-c2nc3cc(C(=N)NC(C)C)ccc3[nH]2)o1)c1ccccc1 ?
0

I am curious: what ΔTm value has been reported for CCOC(=O)/C(=C/c1ccc(-c2nc3cc(C(=N)NC(C)C)ccc3[nH]2)o1)c1ccc(C#N)cc1 ?
1.3

I am curious: what ΔTm value has been reported for COC(=O)c1cc2sc(-c3nc4cc(C(=N)NC(C)C)ccc4[nH]3)cc2c2ccccc12 ?
5.8

I am curious: what ΔTm value has been reported for COC(=O)c1cc2oc(-c3nc4cc(C(=N)NC(C)C)ccc4[nH]3)cc2c2ccccc12 ?
3.8

I am curious: what ΔTm value has been reported for COC(=O)/C(=C/c1ccc(-c2nc3cc(C(=N)NC(C)C)ccc3[nH]2)s1)c1ccccc1 ?
2.7

----------
# Test system: DNA
# assay-remarks: Binding affinity to calf thymus DNA assessed as relative fluorescence intensity by fluorescence emission spectra analysis relative to control
# Assay type: nucleic-acid assay
# particulars: Bos taurus
endpoint: Flu intensity (a.u.)
Response body: numeric value in a.u., unit text excluded.

I am curious: what Flu intensity value has been reported for CCOC(=O)c1cc2oc(-c3nc4cc(C(=N)NC(C)C)ccc4[nH]3)cc2c2cc(C#N)ccc12 ?
282

I am curious: what Flu intensity value has been reported for COC(=O)/C(=C/c1ccc(-c2nc3cc(C(=N)NC(C)C)ccc3[nH]2)o1)c1ccccc1 ?
147

I am curious: what Flu intensity value has been reported for COC(=O)c1cc2oc(-c3nc4cc(C(=N)NC(C)C)ccc4[nH]3)cc2c2ccccc12 ?
790

I am curious: what Flu intensity value has been reported for COC(=O)/C(=C/c1ccc(-c2nc3cc(C(=N)NC(C)C)ccc3[nH]2)s1)c1ccccc1 ?
232

I am curious: what Flu intensity value has been reported for CCOC(=O)/C(=C/c1ccc(-c2nc3cc(C(=N)NC(C)C)ccc3[nH]2)o1)c1ccc(C#N)cc1 ?
161

I am curious: what Flu intensity value has been reported for COC(=O)c1cc2sc(-c3nc4cc(C(=N)NC(C)C)ccc4[nH]3)cc2c2ccccc12 ?
916
